- Test system: KM12 colon
- experiment_notes: NCI-60 one-dose screen, 48 h
- cond: 10 µM unless noted
Compounds without any hit were thinned out: in the full panel of roughly 83,000, 20% have a hit. Activity calls are given as the source filed them. Rule for the calls: active = growth percent below 10; inactive = the rest.
Possible outcomes: Yes (active), No (inactive)

> print(dat)
                                    molecule  label.class
 1  CN1CCN(Cc2ccc(NC(=O)c3cncc(C#Cc4cnc(N)c5ccc(C#N)cc45)c3)cc2C(F)(F)F)CC1          Yes
 2  COc1c(O[C@@H]2OC(CO)[C@H](O)[C@H](O)C2O)cc2oc3cc(O)c(CC=C(C)C)c(O)c3c(=O)c2c1CC=C(C)C (some centres undefined)           No
 3  Cc1ccc(-c2nc(C#N)c(S(=O)(=O)n3nc(C)cc3N)o2)cc1           No
 4  CCCN1C(=O)N(CCC)C2C1NC(=S)N2/N=C/C=C/c1ccccc1OC (centres undefined)           No
 5  O=C(CN1C(=O)c2ccccc2S1(=O)=O)Nc1nc(-c2cc3ccccc3oc2=O)cs1           No
 6  COc1cc(/C=C2\C(=O)N(CCOc3cc(O)c4c(=O)cc(-c5ccccc5)oc4c3)c3ccccc32)cc(OC)c1O           No
 7  O=C(Nc1ncc(Cc2cc(C(F)(F)F)ccc2Cl)s1)C(=S)N1CCOCC1           No
 8  N#Cc1c(-c2ccc(F)cc2)cc(-c2cccc(Cl)c2)[nH]c1=O           No
 9  O=C(Cn1cc(CSc2nc3ccccc3o2)nn1)Nc1ccc([N+](=O)[O-])cc1           No
10  N=C(N)c1ccc(-c2ccc(-c3ccc(Cl)cc3Cl)s2)nc1          Yes
11  CC(C)(C#N)c1cc(C(=O)Nc2cc(Nc3ncccc3-c3ncnc4nc[nH]c34)ccc2F)cc(C(F)(F)F)c1           No
12  CC(=O)Cc1nsc(NC(=O)c2cc(-c3cc(Cl)ccc3Cl)oc2C)n1           No
13  O=C(Nc1ccc2c(c1)-c1ccccc1C2)C1CC(=O)N(c2ccc3c(c2)OCO3)C1 (centres undefined)           No
14  COc1cccc(C2C(C#N)=C(N)Oc3c2ccc2ccccc32)c1 (centres undefined)           No
15                       O=C(O)c1cc2ccccc2s1           No
16  CC1=C(C(=O)OCc2ccccc2)C(c2ccc3c(c2)OCO3)n2c(nc3ccccc32)N1 (centres undefined)           No
17  Cc1cc([N+](=O)[O-])ccc1NC(=O)c1ccc2c(c1)nc(-c1ccccc1)n2C1CCCCC1           No
18  CCN(CC)c1ccc(/C=N/NC(=O)c2ccccc2Nc2ccnc(C(F)(F)F)c2)c(O)c1           No
19  Cc1ccccc1NC(=O)Cn1cc(CN2CCN(c3ccnc4cc(Cl)ccc34)CC2)nn1           No
